Provenance of the data: patent US7205295B2

Molecular target: PI3Kγ (p101/p110γ protein) (Homo sapiens, UniProt P48736)
Construct: HA
Sequence (P48736 whole entry, species assumed): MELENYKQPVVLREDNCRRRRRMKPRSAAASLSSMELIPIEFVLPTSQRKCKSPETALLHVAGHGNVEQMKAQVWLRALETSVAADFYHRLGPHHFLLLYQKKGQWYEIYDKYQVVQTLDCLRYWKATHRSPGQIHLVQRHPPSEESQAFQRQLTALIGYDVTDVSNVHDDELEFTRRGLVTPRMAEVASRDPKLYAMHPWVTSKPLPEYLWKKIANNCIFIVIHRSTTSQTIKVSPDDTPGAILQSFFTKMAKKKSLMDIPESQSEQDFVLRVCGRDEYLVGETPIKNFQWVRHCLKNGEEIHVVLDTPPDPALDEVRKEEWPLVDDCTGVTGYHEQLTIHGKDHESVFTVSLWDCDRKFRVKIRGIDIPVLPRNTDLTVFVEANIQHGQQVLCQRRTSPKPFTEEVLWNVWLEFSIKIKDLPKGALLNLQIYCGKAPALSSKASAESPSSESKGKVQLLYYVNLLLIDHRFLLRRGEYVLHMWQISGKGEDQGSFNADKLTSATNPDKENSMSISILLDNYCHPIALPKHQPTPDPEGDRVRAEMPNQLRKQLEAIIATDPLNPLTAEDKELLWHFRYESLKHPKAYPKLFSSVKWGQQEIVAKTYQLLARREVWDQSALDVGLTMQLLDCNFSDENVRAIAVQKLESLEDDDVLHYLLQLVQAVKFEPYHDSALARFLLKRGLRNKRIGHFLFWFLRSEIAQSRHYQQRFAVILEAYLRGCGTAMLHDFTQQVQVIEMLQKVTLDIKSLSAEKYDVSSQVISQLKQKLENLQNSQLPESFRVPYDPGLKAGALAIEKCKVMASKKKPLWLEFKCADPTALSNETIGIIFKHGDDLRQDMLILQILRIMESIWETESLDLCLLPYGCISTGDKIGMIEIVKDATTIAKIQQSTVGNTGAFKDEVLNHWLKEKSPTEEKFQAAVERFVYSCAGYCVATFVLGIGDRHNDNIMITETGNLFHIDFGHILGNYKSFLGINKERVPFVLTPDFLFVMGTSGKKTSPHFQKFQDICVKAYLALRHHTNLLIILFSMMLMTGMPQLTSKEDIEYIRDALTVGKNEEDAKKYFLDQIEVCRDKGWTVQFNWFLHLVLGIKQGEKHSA
Sequence (Q8WYR1 whole entry partner, species assumed): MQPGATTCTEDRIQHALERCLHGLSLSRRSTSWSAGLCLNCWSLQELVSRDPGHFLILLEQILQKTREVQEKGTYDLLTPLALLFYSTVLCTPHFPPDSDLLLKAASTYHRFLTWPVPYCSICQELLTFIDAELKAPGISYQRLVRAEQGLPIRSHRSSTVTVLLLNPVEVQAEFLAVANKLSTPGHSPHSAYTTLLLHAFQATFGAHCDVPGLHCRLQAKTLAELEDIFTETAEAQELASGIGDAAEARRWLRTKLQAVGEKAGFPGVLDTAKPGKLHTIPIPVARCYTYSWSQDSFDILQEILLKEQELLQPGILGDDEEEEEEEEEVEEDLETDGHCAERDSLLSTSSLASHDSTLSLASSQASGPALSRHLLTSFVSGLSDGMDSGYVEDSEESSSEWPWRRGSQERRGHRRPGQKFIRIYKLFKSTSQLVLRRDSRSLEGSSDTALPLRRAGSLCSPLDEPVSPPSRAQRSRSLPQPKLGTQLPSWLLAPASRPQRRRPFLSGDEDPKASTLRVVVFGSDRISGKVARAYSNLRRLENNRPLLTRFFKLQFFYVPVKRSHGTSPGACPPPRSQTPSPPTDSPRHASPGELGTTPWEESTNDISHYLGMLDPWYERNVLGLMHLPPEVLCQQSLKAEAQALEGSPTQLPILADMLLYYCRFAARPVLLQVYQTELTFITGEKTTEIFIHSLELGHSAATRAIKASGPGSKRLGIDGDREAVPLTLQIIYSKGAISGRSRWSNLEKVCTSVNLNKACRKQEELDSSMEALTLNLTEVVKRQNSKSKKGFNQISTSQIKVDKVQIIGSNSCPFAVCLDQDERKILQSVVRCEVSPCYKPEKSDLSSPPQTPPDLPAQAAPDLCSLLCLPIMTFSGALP
Experiment: PI3Kγ In Vitro Kinase Assay
Conditions: purified recombinant p101/p110γ with G protein β1/γ2 subunits; 20 μM ATP, 25 μM PIP2; 20 minutes at room temperature
Below, each entry is listed alongside its reported IC50.
Please respond with the number in nM and leave the unit unwritten.

Below, each entry is followed by its recorded IC50 result.
O=C1NC(=S)SC1=Cc1ccc2c(c1)N(CCCOc1ccccc1)C(=O)CO2 : 4
O=C1NC(=S)SC1=Cc1ccc2c(c1)N(CCCc1ccccc1)C(=O)CO2 [Example 34] : 3
CC(c1cc(C(C)(C)C)cc(C(C)(C)C)c1)N1C(=O)COc2ccc(C=C3SC(=S)NC3=O)cc21 (centres unmarked) : 850
Cc1cc(C=C2SC(=S)NC2=O)cc2c1OCC(=O)N2Cc1cc(C(C)(C)C)cc(C(C)(C)C)c1 : 70
Cc1cc(C=C2SC(=S)NC2=O)cc2c1OCC(=O)N2Cc1ccc(CN2CCCCC2)cc1 : 8

Data request: # query: IC50 of entry O=C1NC(=S)SC1=Cc1cc(F)c2c(c1)N(Cc1ccc(F)c(C(F)(F)F)c1)C(=O)CO2
Data returned: 11

Data request: Entry to check: O=C1NC(=S)SC1=Cc1ccc2c(c1)N(Cc1cccc(C(F)(F)F)c1)C(=O)CO2
Data returned: 21

Data request: Now the compound Cc1cc(CN2C(=O)COc3ccc(C=C4SC(=S)NC4=O)cc32)ccc1F
Data returned: 1

---

Biological target: PI3Kγ (p101/p110γ protein) (Homo sapiens)
Construct: HA
Assay: PI3Kγ In Vitro Kinase Assay
Settings: purified recombinant p101/p110γ with G protein β1/γ2 subunits; 20 μM ATP, 25 μM PIP2; 20 minutes at room temperature
Property: pIC50
Convention used: pIC50 is expressed as -log10 of the molar concentration.

Example entries begin here.
O=C1NC(=S)S/C1=C\c1ccc2c(c1)N(Cc1ccc(C(=O)N3CCOCC3)cc1)C(=O)CO2 : 8.10
O=C1NC(=S)SC1=Cc1ccc2c(c1)N(CCCc1ccccc1)C(=O)CO2 [Example 160] : 8.15
CN1C(=O)COc2ccc(C=C3SC(=S)NC3=O)cc21 : 7.35
Cc1cc(CN2C(=O)COc3ccc(C=C4SC(=S)NC4=O)cc32)cc(-c2ccoc2)c1 : 7.82
Cc1ccc(CN2C(=O)COc3ccc(C=C4SC(=S)NC4=O)cc32)c(C)c1 : 8.30
O=C1NC(=S)S/C1=C\c1cc(F)c2c(c1)N(Cc1cc(C(F)(F)F)cc(C(F)(F)F)c1)C(=O)CO2 : 6.92
C=Cc1cc(CN2C(=O)COc3ccc(C=C4SC(=S)NC4=O)cc32)cc(C(C)(C)C)c1 : 7.74

Please examine the following record next.
Data request: Form entry - test system: PI3Kγ (p101/p110γ protein) (Homo sapiens); read-out: pIC50; compound: CC(C)(C)c1cc(CN2C(=O)COc3ccc(C=C4SC(=S)NC4=O)cc32)cc(-c2ccccc2)c1
Data returned: 7.02

---

Target: PI3Kγ (p101/p110γ protein) (Homo sapiens, UniProt P48736)
Construct: HA
Experiment: PI3Kγ In Vitro Kinase Assay
Conditions: purified recombinant p101/p110γ with G protein β1/γ2 subunits; 20 μM ATP, 25 μM PIP2; 20 minutes at room temperature
pIC50: −log10 of the molar value.
Please enter 1 where pIC50 is greater than or equal to 8, and -1 where it is lower.

# count of solved cases: 3
O=C1NC(=S)SC1=Cc1ccc2c(c1)N(CC(=O)c1ccc3c(c1)oc1ccccc13)C(=O)CO2 : -1
CC(C)(C)OC(=O)N1CCN(Cc2ccc(CN3C(=O)COc4ccc(C=C5SC(=S)NC5=O)cc43)cc2)CC1 : -1
COC(=O)c1cccc(CN2C(=O)COc3ccc(C=C4SC(=S)NC4=O)cc32)c1 : -1

Data request: Answer whether pIC50 of O=C1NC(=S)SC1=Cc1ccc2c(c1)N(Cc1ccccc1OC(F)(F)F)C(=O)CO2 is greater than or equal to 8.
Data returned: -1

Data request: Then what about the compound O=C(O)CN1C(=O)COc2ccc(C=C3SC(=S)NC3=O)cc21 ?
Data returned: -1

Data request: Entry to check: O=C1NC(=S)SC1=Cc1ccc2c(c1)N(Cc1ccc(F)cc1)C(=O)CO2
Data returned: 1
